Data credit: patent US20170081400A1

Target: T1, human TL1A extracellular domain with N-terminal HIS and FLAG tag (human, UniProt O95150 72-251)
T1 construct: whole entry named. ~70 kDa fraction purified by gel filtration
T1 sequence: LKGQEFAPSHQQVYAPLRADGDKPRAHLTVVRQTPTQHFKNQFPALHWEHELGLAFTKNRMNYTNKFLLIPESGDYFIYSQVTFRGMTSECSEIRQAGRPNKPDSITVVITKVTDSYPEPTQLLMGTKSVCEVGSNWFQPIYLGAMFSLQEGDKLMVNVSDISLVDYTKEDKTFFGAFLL
Test: SPR run 2; supernatant on Protein A; TL1A 10 ug/mL; timepoint 44
Kindly supply the reported TL1A Binding Level (Early) values for the records listed here.
Respond numerically; units are RU and should not be typed.

Measured TL1A Binding Level (Early) of 320-217 (antibody, human IgG1, name in Kabat numbering, V domains shown, human IgG1, lambda) VH: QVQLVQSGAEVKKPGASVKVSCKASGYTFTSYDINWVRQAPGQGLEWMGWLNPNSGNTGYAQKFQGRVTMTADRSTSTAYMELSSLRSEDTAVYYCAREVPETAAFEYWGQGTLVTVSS VL: QSVLTQPPSVSGAPGQRVTISCTSSASDIGAGLGVHWYQQLPGTAPKLLIEGYYNRPSGVPDRFSGSKSGTSASLTITGLLPEDEGDYYCQSYDGTLSALFGGGTKLTVLG : 258

Measured TL1A Binding Level (Early) of 320-211 (antibody, human IgG1, name in Kabat numbering, V domains shown, human IgG1, lambda) VH: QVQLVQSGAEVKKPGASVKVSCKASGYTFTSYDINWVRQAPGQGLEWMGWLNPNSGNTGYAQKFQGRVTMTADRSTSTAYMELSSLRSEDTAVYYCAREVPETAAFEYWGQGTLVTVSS VL: QSVLTQPPSVSGAPGQRVTISCTSDSSDIGAGLGVHWYQQLPGTAPKLLIEGYYNRPSGVPDRFSGSKSGTSASLTITGLLPEDEGDYYCQSYDGTLSALFGGGTKLTVLG : 206

Measured TL1A Binding Level (Early) of 320-229 (antibody, human IgG1, name in Kabat numbering, V domains shown, human IgG1, lambda) VH: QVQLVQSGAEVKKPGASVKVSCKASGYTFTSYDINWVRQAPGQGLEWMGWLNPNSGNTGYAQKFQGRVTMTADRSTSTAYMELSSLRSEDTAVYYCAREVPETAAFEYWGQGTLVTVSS VL: QSVLTQPPSVSGAPGQRVTISCTSSSKDIGAGLGVHWYQQLPGTAPKLLIEGYYNRPSGVPDRFSGSKSGTSASLTITGLLPEDEGDYYCQSYDGTLSALFGGGTKLTVLG : 268
